Test system: tobacco mosaic virus (TMV)
Test: Induction of resistance to tobacco mosaic virus in tobacco
Format: in vivo
Conditions: % decline in TMV lesions vs UTC, covered leaf (systemic response), spray 20 ug/ml
Marks after values point to notes of the source that are not given here.
As shown below, each of these sequences has a reported Effectiveness Covered (%) value.

Bench note, tobacco mosaic virus (TMV): entry SEEEEQLDQLLLAFIAAALQQ [Peptide P5-25] , its Effectiveness Covered (%) = 93* %

Bench note, tobacco mosaic virus (TMV): entry SAGSEQQLDLLLAFIAAAL [Peptide P5-6] , its Effectiveness Covered (%) = 36%

Bench note, tobacco mosaic virus (TMV): entry SEEQLDLLLMFIMMMLQQEE [Peptide P5-47] , its Effectiveness Covered (%) = 78* %

Bench note, tobacco mosaic virus (TMV): entry SAGSEQQLELLLAFIAAALQQ [Peptide P5-4] , its Effectiveness Covered (%) = 98* %

Bench note, tobacco mosaic virus (TMV): entry SAGSEQQLDLLLAFIAAALQQ [Peptide P5-3] , its Effectiveness Covered (%) = 70* %

Bench note, tobacco mosaic virus (TMV): entry SEEQLDQLLLMFIMMMLQQEE [Peptide P5-46] , its Effectiveness Covered (%) = 74* %

----------
As shown below, each of these sequences has a reported Effectiveness Covered (%) value.
Tested on: tobacco mosaic virus (TMV)
Assay: Induction of resistance to tobacco mosaic virus in tobacco
Type: in vivo
Conditions: % decline in TMV lesions vs UTC, covered leaf (systemic response), spray 20 ug/ml
Marks after values point to notes of the source that are not given here.

Example sequences with recorded Effectiveness Covered (%):
| MONOMER SEQUENCE | TARGET | Effectiveness Covered (%) |
| --- | --- | --- |
| SEEELELLLAFIAAALEEEE [Peptide P5-22] | tobacco mosaic virus (TMV) | 62% |
| SAGSEQQLDLLLMFIAAALQQ [Peptide P5-2] | tobacco mosaic virus (TMV) | 90* % |
| SEEEEELDLLLAFIAAAL [Peptide P5-7] | tobacco mosaic virus (TMV) | 91* % |

Lab book: Effectiveness Covered (%) of SEEEEELDLLLAFIAAALQQ [Peptide P5-8] noted as 99* %
